- EXPERIMENTAL_SYSTEM: human PKA-Cα (PKA catalytic subunit alpha), purified, used in fluorescence polarization (human, UniProt P17612 1-351)
- PROTOCOL_SUMMARY: fluorescence polarisation
Where no end group is shown, it is not given here. 3xPEG = linker of three PEG units
TEST_READOUT: Kd

Input line: Find the recorded Kd belonging to {FAM-3xPEG}-SADVSSAWAQHVTKMVARRGAILP [FAM-labeled standard SMO PKI peptide (SMO residues 615–638)] and report it.
Output line: 823 nM
